procedureDetails: log P by HPLC on reversed-phase column (C 18), EEC Directive 79/831 Annex V.A8
Type: physicochemical
conditionsUsed: reversed-phase HPLC column (C 18), pH 2.7, LC-MS acidic range, pH 2.7, 0.1% formic acid/acetonitrile, 55° C.; read-out: log P (acidic) / log P (HCOOH)
Procedure: Temperature: 55° C. […] Called log P (HCOOH) in the table. […] Called log P (neutral) in the table.
measurementType: chromatographic logP

Field request: chromatographic logP | item: NNC(=O)c1cc(-c2ccc(OC(F)(F)F)cc2)cc(NC(=O)C2CC2)n1 [XXIV-1]
2.57

Request: FC(F)(F)Oc1ccc(-c2cc(Cl)nc(Cl)c2)cc1 [XIV-1]
4.63

Here is the next compound: N#Cc1ccc(CNC(=O)c2cc(-c3ccc(C(F)(F)F)nc3)cc(NC(=O)C3CC3)n2)cc1 [Example I-123]
3.02

Likewise for O=C(Nc1cc(-c2ccc(C(F)(F)C(F)(F)F)c(F)c2)cc(Cl)n1)C1CC1 [XXII-1] ?
4.76

Please do the same for COC(=O)N(C(=O)C1CC1)c1cc(-c2ccc(OC(F)(F)F)cc2)cc(C(=O)NCc2ccc(C#N)cc2)n1 [Example I-233] as well.
3.9

[1] N#Cc1ccc(CNC(=O)c2cc(-c3ccc(C(F)(F)F)cc3)cc(N(C(=O)C3CC3)C(=O)C3CC3)n2)cc1F [Example I-028]
[2] N#Cc1ccc(CNC(=O)c2cc(B(O)O)cc(NC(=O)C3CC3)n2)cc1 [Example X-1b]
[3] O=C(O)c1cc(-c2ccc(OC(F)(F)F)cc2)cc(NC(=O)C2CC2)n1
# rank by chromatographic logP, ascending (min first) Would you mind listing the labels in the order requested?
2, 3, 1

====

procedureDetails: log P by HPLC on reversed-phase column (C 18), EEC Directive 79/831 Annex V.A8
Format: physicochemical
conditionsUsed: log P, neutral range; HPLC on reversed-phase column (C 18), 55° C.
measurementType: LOGP_NEUTRAL

Find the recorded LOGP_NEUTRAL belonging to CC(C#N)NC(=O)c1cc(-c2ccc(OC(F)(F)F)cc2)cc(NC(=O)C2CC2)n1 (centres unmarked) and report it.
3.40

[I] C#CCNC(=O)c1cc(-c2ccc(C(F)(F)F)cc2)cc(NC(=O)C2CC2)n1
[II] O=C(NCC1CCCCC1)c1cc(-c2ccc(OC(F)(F)F)cc2)cc(NC(=O)C2CC2)n1
Task for the reader: decide whether I or II has the larger LOGP_NEUTRAL. Your answer should be the label of the entry you select.
II

[a] N#Cc1ccc(CNC(=O)c2cc(-c3cc(F)c(OC(F)F)c(F)c3)cc(NC(=O)C3CC3)n2)cc1
[b] O=C(NCc1cc(F)c(Cl)cc1Cl)c1cc(-c2ccc(C(F)(F)F)cc2)cc(NC(=O)C2CC2)n1
Of the pair a and b , name the member with the lesser recorded LOGP_NEUTRAL. Let me know the label of the one you choose.
a

[I] N#CC1CCC(NC(=O)c2cc(-c3ccc(OC(F)(F)F)cc3)cc(NC(=O)C3CC3)n2)CC1 (centres unmarked)
[II] O=C(Cc1ccc(C(F)(F)F)cc1)Nc1cc(-c2ccc(C(F)(F)F)cc2)cc(C(=O)NC2CC2)n1
Thinking about recorded LOGP_NEUTRAL values, which is higher, I or II ? State your choice using its label.
II
(II: 5.54, I: 3.66)

[I] CC(NC(=O)c1cc(-c2ccc(C(F)(F)F)cc2)cc(NC(=O)C2CC2)n1)c1ccc(C(F)(F)F)cc1 (centres unmarked)
[II] O=C(NC1CCS(=O)(=O)C1)c1cc(-c2ccc(OC(F)(F)F)cc2)cc(NC(=O)C2CC2)n1 (centres unmarked)
I'm curious whether I or II has the smaller LOGP_NEUTRAL number. Which is it? Answer with the label corresponding to your selection.
II
(II: 3.00, I: 4.77)
